B1: KRT18 (parent)
chain: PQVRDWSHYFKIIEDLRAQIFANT

variants of: B1; assay: protein stability index of a GFP-peptide fusion (GPS, HEK-293T) (PSI 1-6); higher = more stable; conditions: c terminus: a fixed tail appended;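 note: lentivirally expressed fusions sorted by FACS into six bins by GFP to DsRed ratio, PSI derived from sequencing read proportions per bin multiplied by bin number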
measured quantity: protein stability index
Please respond with just the number, no unit label.

Consider the reported protein stability index for these variants:
>  <sequence text>
PQVRDWSHYFKIIEDQRAQIFANT

>  <measured quantity>
protein stability index

>  <result>
2.47

$$$$
>  <sequence text>
PQVRDWEHYFKIIEDLRAQIFANT

>  <measured quantity>
protein stability index

>  <result>
2.12

$$$$
>  <sequence text>
PQMRDWSHYFKIIEDLRAQIFANT

>  <measured quantity>
protein stability index

>  <result>
1.84

$$$$
>  <sequence text>
PQVRDWSHYFKIIEDLRAQILANT

>  <measured quantity>
protein stability index

>  <result>
2.7

$$$$
>  <sequence text>
PQVRDWSHYFKIIEDLRAQIFINT

>  <measured quantity>
protein stability index

>  <result>
2.5

$$$$
>  <sequence text>
PQVRDWSHYFKIIEDLRAQIFANC

>  <measured quantity>
protein stability index

>  <result>
2.02

$$$$

**Q:** Identify protein stability index associated with the variant `PQSRDWSHYFKIIEDLRAQIFANT`
**A:** 2.44

**Q:** Identify protein stability index associated with the variant `PQVRDWSHYFKIIEDLRAQIFAKT`
**A:** 2.06

**Q:** Identify protein stability index associated with the variant `PQVRDWSHYFKIIEDLRAQMFANT`
**A:** 2.15

**Q:** Identify protein stability index associated with the variant `PQVRDWSHYFKIIEDLRAQITANT`
**A:** 1.97

**Q:** Identify protein stability index associated with the variant `PQVPDWSHYFKIIEDLRAQIFANT`
**A:** 2.47

**Q:** Identify protein stability index associated with the variant `PQVRDWSHYFKIIEDERAQIFANT`
**A:** 2.63

**Q:** Identify protein stability index associated with the variant `PQVRDWSHYFKIIEDWRAQIFANT`
**A:** 2.05

**Q:** Identify protein stability index associated with the variant `PQVRDWSHYFKIIEDKRAQIFANT`
**A:** 1.85

**Q:** Identify protein stability index associated with the variant `PQVRDWSHYFKITEDLRAQIFANT`
**A:** 2.54

**Q:** Identify protein stability index associated with the variant `PQVRDWSHYFKIIEDLRAQIFGNT`
**A:** 2.51

**Q:** Identify protein stability index associated with the variant `PQVRDWSHYFKIWEDLRAQIFANT`
**A:** 3.46

**Q:** Identify protein stability index associated with the variant `PQVRDWTHYFKIIEDLRAQIFANT`
**A:** 2.82
